# test-target: human ether-à-go-go-related gene (hERG) potassium channel (human, UniProt Q12809);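 further: peak tail current of the secondary pulse compared with the same well before compound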
# Sequence (Q12809 whole entry, looked up): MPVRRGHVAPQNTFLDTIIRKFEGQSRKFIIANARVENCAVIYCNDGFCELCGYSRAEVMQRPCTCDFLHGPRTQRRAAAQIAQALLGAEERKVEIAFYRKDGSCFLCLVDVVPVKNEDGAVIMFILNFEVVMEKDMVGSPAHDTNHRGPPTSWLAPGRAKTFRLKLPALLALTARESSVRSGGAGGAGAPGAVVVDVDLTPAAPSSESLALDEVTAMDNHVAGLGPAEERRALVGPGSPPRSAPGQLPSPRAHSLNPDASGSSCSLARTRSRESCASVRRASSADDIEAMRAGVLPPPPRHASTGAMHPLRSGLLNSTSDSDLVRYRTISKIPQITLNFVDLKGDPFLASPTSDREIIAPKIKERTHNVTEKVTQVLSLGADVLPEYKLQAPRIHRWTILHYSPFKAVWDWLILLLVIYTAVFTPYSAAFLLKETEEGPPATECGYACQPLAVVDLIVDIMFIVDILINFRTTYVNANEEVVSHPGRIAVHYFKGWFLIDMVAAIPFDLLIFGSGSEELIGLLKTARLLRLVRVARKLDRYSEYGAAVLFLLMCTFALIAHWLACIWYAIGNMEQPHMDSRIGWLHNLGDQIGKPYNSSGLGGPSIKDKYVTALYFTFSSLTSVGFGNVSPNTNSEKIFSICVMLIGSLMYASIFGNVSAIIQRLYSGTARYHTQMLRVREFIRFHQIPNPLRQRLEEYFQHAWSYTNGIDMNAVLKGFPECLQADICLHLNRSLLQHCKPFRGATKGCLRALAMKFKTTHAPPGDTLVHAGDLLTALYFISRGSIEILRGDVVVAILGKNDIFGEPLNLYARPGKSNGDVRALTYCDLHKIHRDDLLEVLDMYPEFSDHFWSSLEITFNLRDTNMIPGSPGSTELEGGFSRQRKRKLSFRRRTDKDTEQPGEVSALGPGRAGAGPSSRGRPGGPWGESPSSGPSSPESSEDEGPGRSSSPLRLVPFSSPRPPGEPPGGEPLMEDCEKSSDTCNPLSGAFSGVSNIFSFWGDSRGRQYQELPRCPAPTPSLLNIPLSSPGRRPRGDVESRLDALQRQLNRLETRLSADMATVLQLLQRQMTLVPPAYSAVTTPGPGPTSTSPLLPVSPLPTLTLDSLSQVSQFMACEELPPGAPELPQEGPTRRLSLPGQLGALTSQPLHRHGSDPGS
# experimental-details: primary screen, population patch clamp on CHO cells stably expressing hERG; higher = less effect of the substance
Hit rate of the full screen: of about 310,000 compounds, about 14,000 (4.5%) showed an effect of 50% or more. Effects have a minus sign here. Only a selection was taken, and strong results are over-represented in it overall.
Label false (0) if hERG current change (%, negative = inhibition) at 10uM falls below -30%; label true (1) in every other case.

Example entries and their recorded answers appear below.
Challenge: Reported hERG current change (%, negative = inhibition) at 10uM at or above -30%? COc1ccc(N(CC(=O)N/N=C/c2cccnc2)S(=O)(=O)c2ccc(C)cc2)cc1OC
Response given: true (1)

Challenge: Reported hERG current change (%, negative = inhibition) at 10uM at or above -30%? Cc1cc(C)cc(N(CC(=O)Nc2ccccc2-c2ccccc2)S(=O)(=O)c2ccccc2)c1
Response given: true (1)

Challenge: Reported hERG current change (%, negative = inhibition) at 10uM at or above -30%? CCOC(=O)c1c(NC(=S)Nc2ccc(OC)cc2)sc2c1CCC2
Response given: true (1)

Challenge: Reported hERG current change (%, negative = inhibition) at 10uM at or above -30%? CCOC(=O)c1c(NC(=O)Nc2ccc(F)cc2)sc2c1CCN(C)C2
Response given: true (1)

Challenge: Reported hERG current change (%, negative = inhibition) at 10uM at or above -30%? COc1ccc(N(CC(=O)N/N=C/c2cccnc2)S(=O)(=O)c2ccccc2)c(OC)c1
Response given: false (0)

Challenge: Reported hERG current change (%, negative = inhibition) at 10uM at or above -30%? Cc1cc(C)cc(N(CC(=O)N/N=C/c2ccncc2)S(=O)(=O)c2ccccc2)c1
Response given: false (0)

Challenge: Reported hERG current change (%, negative = inhibition) at 10uM at or above -30%? COc1ccc(/C=N/NC(=O)CN(c2ccc(OC)cc2)S(=O)(=O)c2ccccc2)cc1
Response given: true (1)

Challenge: Reported hERG current change (%, negative = inhibition) at 10uM at or above -30%? CCOC(=O)c1c(NC(=S)Nc2ccc(OC)cc2)sc2c1CCCCC2
Response given: true (1)

Please look at the following compound next.
Challenge: Reported hERG current change (%, negative = inhibition) at 10uM at or above -30%? CCOC(=O)c1c(NC(=S)Nc2ccc(OCC)cc2)sc2c1CCN(C)C2
Response given: false (0)

====

Reported values of hERG current change (%, negative = inhibition) at 10uM for individual entries
# test-target: human ether-à-go-go-related gene (hERG) potassium channel (human);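 further: peak tail current of the secondary pulse compared with the same well before compound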
# experimental-details: primary screen, population patch clamp on CHO cells stably expressing hERG; higher = less effect of the substance
Screen size: about 310,000 compounds; about 14,000 (4.5%) showed an effect of 50% or more. The effect is printed as a negative number. This is one part of a sample in which strong results are shown more often than they occur.
Hi! Could you send only the number? It should be in %, unit omitted.

Challenge: Note hERG current change (%, negative = inhibition) at 10uM for the molecule shown: O=C(N/N=C/c1cccc2ccccc12)c1cccs1
Response given: 20.7

Challenge: Note hERG current change (%, negative = inhibition) at 10uM for the molecule shown: Cc1ccc(C)c(N2CCN(C(=O)c3ccc(CS(=O)Cc4ccc(Cl)cc4)o3)CC2)c1 (centres unmarked)
Response given: -26.9
